measurement_type: melting point

{"columns": ["compound", "measurement_type", "reported_value"],
 "data": [
  ["COc1ccc2c(c1)S(=O)(=O)c1c(cc(OC)c(OC(C)=O)c1Br)N2", "melting point", "258 to 260 °C"],
  ["CCCCOCCOc1ccc(-c2ccc(N3CCC(C)C3)c(C=CC(=O)O)c2)cc1 (stereo not given)", "melting point", "136 to 139 °C"],
  ["CCOC(=O)c1ccc(NC(=O)CCc2ccc(OC)cc2)cc1", "melting point", "134 to 136 °C"],
  ["Cc1ccccc1NC(=O)/C=C/C=C/CC1CCc2c(cccc2C(F)(F)F)C1 (stereo not given)", "melting point", "171 °C"],
  ["COc1cc(OC)cc(OCCCCCN2CCC(CNC(=O)c3cc(Cl)c(N)cc3OC)CC2)c1", "melting point", "112 to 113 °C"],
  ["CCCCCCCCSc1nc(-c2ccccc2)c(-c2ccccc2)[nH]1", "melting point", "133 to 134 °C"],
  ["CCC(C(=O)O)(c1ccc(OCc2ccc3ccccc3n2)cc1)c1ccc(OCc2ccc3ccccc3n2)cc1", "melting point", "83 to 92 °C"],
  ["O=CNc1[nH]c(-c2ccc(F)cc2)nc1-c1ccccc1", "melting point", "245 to 247 °C"]
]}

Consider the compound "Clc1cccc(-c2ccc3nncn3n2)c1" and give its measured melting point.
175 to 177 °C

What about Cn1cncc1C(O)(c1ccc2c(c1)c(-c1cccc(Cl)c1)cc(=O)n2C)c1nccs1 (stereo not given) ?
246 °C
